B1: FAM50A (parent)
chain: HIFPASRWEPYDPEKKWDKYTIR

Variants of: B1
assayRemarks: protein stability index of a GFP-peptide fusion (GPS, HEK-293T) (PSI 1-6); higher = more stable;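 note: lentivirally expressed fusions sorted by FACS into six bins by GFP to DsRed ratio, PSI derived from sequencing read proportions per bin multiplied by bin number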
conditionSummary: c terminus: native
Assign class by protein stability index: not lower than 2 means 1.0; lower than 2 means 0.0.

Use these answered entries as a reference point.
Problem: Determine whether this variant has protein stability index no lower than 2: "R23V"
Result: 1.0

Problem: Quick check: does "R23K" have protein stability index greater than or equal to 2?
Result: 1.0

Problem: Reported protein stability index reaches at least 2 for "T21F" ?
Result: 1.0

Problem: Please indicate if the recorded protein stability index for "W17E" meets or exceeds 2.
Result: 1.0

Problem: Is protein stability index at least 2? Consider "Y20L"
Result: 1.0

Problem: Kindly determine if protein stability index recorded for "D12A" is above or exactly 2.
Result: 1.0

Problem: Test whether the variant "P10V" records protein stability index of 2 or higher.
Result: 0.0

Problem: // inclusive: protein stability index at least 2? input: "F3S"
Result: 1.0

Problem: Is protein stability index at least 2? Consider "K16D"
Result: 0.0

Problem: Dear colleague, could you confirm whether "P13D" has protein stability index at or above 2?
Result: 0.0

***
Problem: protein stability index >= 2 for "Y20P" ?
Result: 1.0

Problem: Given "K15V" , state whether its protein stability index is at least 2.
Result: 1.0

Problem: Say whether "W8F" shows protein stability index of 2 or more.
Result: 1.0

Problem: Textbook exercise: given the entry "K19A" , state whether its protein stability index is greater than or equal to 2.
Result: 1.0

Problem: Is reported protein stability index greater than or equal to 2 here: "W8Q"
Result: 1.0

Problem: Determine whether this variant has protein stability index no lower than 2: "D12N"
Result: 1.0

Problem: Given the entry "S6Q" , answer whether its protein stability index meets or surpasses 2.
Result: 1.0

Problem: Hello, I need to know if "I22L" has measured protein stability index not below 2. Thanks!
Result: 1.0

Problem: Does the reported protein stability index for "A5R" fall at or above the 2 mark?
Result: 0.0

Problem: Determine whether this variant has protein stability index no lower than 2: "T21A"
Result: 1.0

Problem: State whether the measured protein stability index reaches 2, counting equality as reaching it, for "I2Y"
Result: 1.0
